Test: qHTS Assay for Identifying Gametocytocidal Compounds (AID 743244);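 also: % is scaled to controls: 0 for no effect and ±100 for the full control effect; actives lower the fluorescent signal which means gametocytes are killed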
Conditions: P. falciparum 3D7 stage III-V gametocytes, alamarBlue, 72 h; hits give low values
Results filed as inconclusive are left out.
measure: max response (%)
// note: answer is a bare numeric in %

Solved cases below.
Query: What value of max response has been recorded for this entry: COC1=CC=C2[C@H]3Cc4ccc(OC)c5c4[C@@]2(CCN3C)[C@H]1O5
Result: 13.9

Query: Moving on to the next molecule: NC(=O)c1ccc(OCC(O)CN2CC=C(c3ccc(F)cc3)CC2)cc1 (stereo unspecified)
Result: 10.4

Query: C[C@]12CC[C@H]3[C@@H](CC[C@@]45O[C@@H]4C(O)=C(C#N)C[C@]35C)[C@@H]1CC[C@@H]2O , same question.
Result: -8.72

Query: Next: OCc1cnc[nH]1
Result: 26.7

Query: Likewise for C[C@H]1CCC[C@H](O)CCCCCc2cc(O)cc(O)c2C(=O)O1 ?
Result: 5.29

---
Query: Data request, read-out max response, for Clc1ccccc1Cl
Result: 10.6

Query: Note, next up: Cc1sc2ccccc2c1CC1=NCCN1
Result: 25.3

Query: What do you have for Oc1ccc2c3c1O[C@H]1[C@@H](O)CC[C@@]4(O)[C@@H](C2)N(CC2CCC2)CC[C@]314 ?
Result: 2.47

Query: Now give it for C[N+](C)(C)CCOC(=O)CBr too.
Result: 20.4

Query: Same question for CCCn1c(C)c(C(=O)c2ccc3ccccc3c2)c2ccccc21 please.
Result: 6.14
